# experimental-system: T1, human GLP-1 receptor (human, UniProt P43220 24-463)
# T1 construct: whole, on cells; Used as crude membranes of stably transfected HEK293 cells; also called hGLP1R; hGLP-1R
# protocol: SPA, [125I]-GLP-1 displacement, hGLP-1R membranes
pKi: −log10 of the molar value. Numbered stars: 1 amine (or outer) side, 2 acyl side, 3 side chain; on linkers, the order of the positions; unused ones are H or OH. Square brackets hold non-standard residues; d marks the D form. Side chains are listed from the residue outwards. Ends that are not written are not given here. * marks the point of attachment. C20 diacid = O=C(O)CCCCCCCCCCCCCCCCCCC(=O)*; γGlu = O=C(O)[C@H](CCC(=O)[*:2])N[*:1]; αMeF = C[C@](N)(Cc1ccccc1)C(=O)O; αMeL = CC(C)C[C@](C)(N)C(=O)O; cTA = not defined here; AEEA = NCCOCCOCC(=O)O; Aib = CC(C)(N)C(=O)O

binder	pKi
YXEGTFTSDYSILLDKKAQXAFIXYLIEGGPSSGAPPPS (Aib2; K17((2-[2-(2-Amino-ethoxy)-ethoxy]-acetyl)2-(γ-Glu)-CO-(CH2)18-CO2H); Aib20; D-Glu24; C-terminal NH2) [Example 84]	7.99
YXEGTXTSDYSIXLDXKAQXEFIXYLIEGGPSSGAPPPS (Aib2; αMeF(2F)6; αMeL13; Orn16; K17((2-[2-(2-Amino-ethoxy)-ethoxy]-acetyl)2-(γ-Glu)-CO-(CH2)18-CO2H); Aib20; D-Glu24; C-terminal NH2) [Example 3]	8.65
YXEGTFTSDYSIXLDKKAQXAFIEYLIEGG (Aib2; αMeL13; K17((2-[2-(2-Amino-ethoxy)-ethoxy]-acetyl)2-(γ-Glu)-CO-(CH2)18-CO2H); Aib20; C-terminal NH2) [Example 62]	8.69
YXEGTFTSDYSIXLDKKAQXAXIEYLIEGGPSSGAPPPS (Aib2; αMeL13; K17((2-[2-(2-Amino-ethoxy)-ethoxy]-acetyl)2-(γ-Glu)-CO-(CH2)18-CO2H); Aib20; αMeF22; C-terminal NH2) [Example 74]	8.22
YXEGTXTSDYSIXLDEKAQXEFIEYLIEGG (Aib2; αMeF(2F)6; αMeL13; K17((2-[2-(2-Amino-ethoxy)-ethoxy]-acetyl)2-(γ-Glu)-CO-(CH2)16-CO2H); Aib20; C-terminal NH2) [Example 104]	8.41
YXEGTXTSDYSIXLDEKAQXEFIEYLIEGG (Aib2; αMeF(2F)6; αMeL13; K17((2-[2-(2-Amino-ethoxy)-ethoxy]-acetyl)2-(γ-Glu)-CO-(CH2)18-CO2H); Aib20; C-terminal NH2) [Example 103]	8.18
Y[Aib][cTA]GT[αMeF]TSDYSI[αMeL]LDEK([AEEA-AEEA-γGlu-C20 diacid])AQ[Aib]AFIEYLIEGGPSSGAPPPS-NH2 (reading uncertain) [Example 120]	7.93
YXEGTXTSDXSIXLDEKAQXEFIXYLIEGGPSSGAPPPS (not printed (the compound name of this Example is missing from the table of Examples 6-287)) [Example 181]	8.14
YXEGTXTSDYSIXLDEKAQXAFIEYLIEGGPSSGAPPPS (Aib2; αMeF6; αMeL13; K17((2-[2-(2-Amino-ethoxy)-ethoxy]-acetyl)2-(γ-Glu)-CO-(CH2)18-CO2H); Aib20; C-terminal NH2) [Example 115]	8.46
